Catalogue of Blocking of Isoprenalin Tachycardia in wake rabbits: Heartbeat Frequency x±sx readings, one per entry.
tested on: cardiac β-receptor; test: Cardiac β-receptor blocking activity: inhibition of isoprenalin-induced heart frequency increase (tachycardia) in wake rabbits; format: in vivo; details: wake rabbit; dosage 5.0 mg/kg i.v.; isoprenalin 1 μg/kg i.v. 30 min after infusion
Give the number first and the unit second.

- compound: "CC(C)NCC(O)COc1cccc(N=[N+]=[N-])c1 (centres unmarked)"
  test-value: "205± 9 Beats/minute"

Data request: Suppose we examine the compound CC(C)(C)NCC(O)COc1cccc(N=[N+]=[N-])c1 (centres unmarked) ; what Blocking of Isoprenalin Tachycardia in wake rabbits: Heartbeat Frequency x±sx value has been reported?
Data returned: 235±10 Beats/minute

Data request: Suppose we examine the compound CC(=O)Nc1ccc(OCC(O)CNC(C)C)cc1 (centres unmarked) [Comparison Compound A, reference compound] ; what Blocking of Isoprenalin Tachycardia in wake rabbits: Heartbeat Frequency x±sx value has been reported?
Data returned: 246± 7 Beats/minute

Data request: Suppose we examine the compound CC(C)NCC(O)COc1ccccc1N=[N+]=[N-] (centres unmarked) ; what Blocking of Isoprenalin Tachycardia in wake rabbits: Heartbeat Frequency x±sx value has been reported?
Data returned: 223± 6 Beats/minute

Data request: Suppose we examine the compound CC(C)(C)NCC(O)COc1ccccc1N=[N+]=[N-] (centres unmarked) ; what Blocking of Isoprenalin Tachycardia in wake rabbits: Heartbeat Frequency x±sx value has been reported?
Data returned: 245±14 Beats/minute

====

Catalogue of Blocking of Isoprenalin Tachycardia in wake rabbits: Heartbeat Frequency x±sx readings, one per entry.
system: cardiac β-receptor; experiment: Cardiac β-receptor blocking activity: inhibition of isoprenalin-induced heart frequency increase (tachycardia) in wake rabbits; assay type: in vivo; settings: wake rabbit; dosage 0.5 mg/kg i.v.; isoprenalin 1 μg/kg i.v. 30 min after infusion
Just the number in Beats/minute, nothing appended.

Data request: Provide the documented Blocking of Isoprenalin Tachycardia in wake rabbits: Heartbeat Frequency x±sx with cardiac β-receptor as the system for CC(=O)Nc1ccc(OCC(O)CNC(C)C)cc1 (centres unmarked) [Comparison Compound A, reference compound]
Data returned: 307

Data request: Provide the documented Blocking of Isoprenalin Tachycardia in wake rabbits: Heartbeat Frequency x±sx with cardiac β-receptor as the system for CC(C)NCC(O)COc1ccccc1N=[N+]=[N-] (centres unmarked)
Data returned: 250

Data request: Provide the documented Blocking of Isoprenalin Tachycardia in wake rabbits: Heartbeat Frequency x±sx with cardiac β-receptor as the system for CC(C)(C)NCC(O)COc1ccccc1N=[N+]=[N-] (centres unmarked)
Data returned: 237

Data request: Provide the documented Blocking of Isoprenalin Tachycardia in wake rabbits: Heartbeat Frequency x±sx with cardiac β-receptor as the system for CC(C)NCC(O)COc1cccc(N=[N+]=[N-])c1 (centres unmarked)
Data returned: 282

Data request: Provide the documented Blocking of Isoprenalin Tachycardia in wake rabbits: Heartbeat Frequency x±sx with cardiac β-receptor as the system for CC(C)(C)NCC(O)COc1cccc(N=[N+]=[N-])c1 (centres unmarked)
Data returned: 256

====

tested on: cardiac β-receptor; assay: Cardiac β-receptor blocking activity: inhibition of isoprenalin-induced heart frequency increase (tachycardia) in wake rabbits; assay type: in vivo; details: wake rabbit; dosage 1.0 mg/kg i.v.; isoprenalin 1 μg/kg i.v. 30 min after infusion
property: Blocking of Isoprenalin Tachycardia in wake rabbits: Heartbeat Frequency x±sx (Beats/minute)
Just the number in Beats/minute, nothing appended.

Below, each entry is followed by its recorded Blocking of Isoprenalin Tachycardia in wake rabbits: Heartbeat Frequency x±sx result.
- compound: "CC(C)(C)NCC(O)COc1ccccc1N=[N+]=[N-] (stereo not shown)"
  test-value: 246
- compound: "CC(C)NCC(O)COc1ccccc1N=[N+]=[N-] (stereo not shown)"
  test-value: 236
- compound: "CC(=O)Nc1ccc(OCC(O)CNC(C)C)cc1 (stereo not shown) [Comparison Compound A, reference compound]"
  test-value: 264

Data request: Suppose we examine the compound CC(C)NCC(O)COc1cccc(N=[N+]=[N-])c1 (stereo not shown) ; what Blocking of Isoprenalin Tachycardia in wake rabbits: Heartbeat Frequency x±sx value has been reported?
Data returned: 258
